Listed here: items and their measured pIC50.
- system name: muscarinic receptors (heart) (Rattus norvegicus, UniProt P10980)
- Construct: The whole heart was cut up with scissors; All the organs were then homogenised in a Potter apparatus
- Sequence (P10980 1-466): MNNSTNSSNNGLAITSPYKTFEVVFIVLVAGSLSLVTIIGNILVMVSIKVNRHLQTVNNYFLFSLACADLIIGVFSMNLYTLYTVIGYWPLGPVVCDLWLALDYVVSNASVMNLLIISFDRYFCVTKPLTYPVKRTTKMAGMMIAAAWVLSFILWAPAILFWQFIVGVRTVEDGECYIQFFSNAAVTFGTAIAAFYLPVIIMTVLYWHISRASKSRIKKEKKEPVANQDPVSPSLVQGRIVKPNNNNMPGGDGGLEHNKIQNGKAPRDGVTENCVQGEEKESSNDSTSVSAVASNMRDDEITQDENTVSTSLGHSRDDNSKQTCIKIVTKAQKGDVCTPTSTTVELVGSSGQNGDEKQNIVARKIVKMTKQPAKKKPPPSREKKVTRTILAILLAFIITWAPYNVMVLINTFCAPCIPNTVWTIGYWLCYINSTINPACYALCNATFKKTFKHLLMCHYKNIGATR
- measurement notes: Binding to muscarinic receptors, 3H-NMS displacement, heart
- cond: 0.3 nM 3H-NMS, 30° C., 45 min, pH 7.4; read-out: IC50 receptor binding test, Heart (H)
pIC50: −log10 of the molar value.
parameter measured: pIC50

>>> endpoint_result("CCN(CC)CC1CCCCN1CCCCN1c2ccccc2C(=O)Nc2cccnc21 (stereo not drawn)")
8.70
>>> endpoint_result("O=C1Nc2cccnc2N(CCCCCCN2CCCCC2)c2ccccc21")
9.22
>>> endpoint_result("CCN(CC)CC1CCCCN1CC#CCN1c2ccccc2C(=O)Nc2cccnc21 (stereo not drawn)")
7.74

----------
- system name: histamine-H1 receptor (Rattus norvegicus, UniProt P31390)
- Construct: whole rat brains were used without the cerebellum
- Sequence (P31390 whole entry): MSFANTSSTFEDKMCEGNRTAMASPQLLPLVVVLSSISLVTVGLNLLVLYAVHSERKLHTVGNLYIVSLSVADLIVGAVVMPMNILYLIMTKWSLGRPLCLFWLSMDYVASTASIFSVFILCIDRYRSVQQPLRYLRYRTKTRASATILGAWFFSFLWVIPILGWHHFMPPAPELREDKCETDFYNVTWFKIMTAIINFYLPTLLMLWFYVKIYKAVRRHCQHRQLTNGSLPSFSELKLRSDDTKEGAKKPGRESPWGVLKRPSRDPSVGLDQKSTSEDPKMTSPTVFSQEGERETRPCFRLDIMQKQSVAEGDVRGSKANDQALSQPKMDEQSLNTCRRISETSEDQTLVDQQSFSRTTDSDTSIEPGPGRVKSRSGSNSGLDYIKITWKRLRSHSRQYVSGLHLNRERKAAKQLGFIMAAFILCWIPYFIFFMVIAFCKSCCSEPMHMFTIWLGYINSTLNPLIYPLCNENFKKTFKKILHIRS
- measurement notes: Binding to the histamine-H1 receptor (3H-pyrilamine)
- cond: 2 nM 3H-pyrilamine, ambient temperature, 60 min, whole rat brain without cerebellum
parameter measured: IC50 (µM)

>>> endpoint_result("CCN(CC)CC1CCCCN1CCCCN1c2ccccc2C(=O)Nc2cccnc21 (stereo not shown)")
9
